Molecular target: T1, recombinantly expressed human NOGO-A (hNOGO) (human, UniProt Q9NQC3 586-785, limits assumed)
T1 sequence (looked up): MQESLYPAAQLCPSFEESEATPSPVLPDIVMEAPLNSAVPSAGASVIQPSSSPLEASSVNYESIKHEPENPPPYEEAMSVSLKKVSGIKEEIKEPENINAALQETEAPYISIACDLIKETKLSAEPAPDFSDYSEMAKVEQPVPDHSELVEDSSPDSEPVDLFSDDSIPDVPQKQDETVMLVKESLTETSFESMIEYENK
Test: SPR, Biacore3000; hNOGO amine-coupled to CM5 chip, antibody in solution
kon reference
Express your answer in M⁻¹ s⁻¹, writing the number without its unit.

BINDER | kon / M⁻¹ s⁻¹
Anti-NOGO antibody 15C3/3 (mouse monoclonal) (antibody, V domains shown, Mouse hybridoma antibody; also called Mouse 15C3) VH: QVQLQQSGAELVKPGASVKISCKASGYAFSSYWMNWVKQRPGKGLEWIGQIYPGDGDTNYNGKFKGKATLTADKSSSTAYMQLSSLTSEDSAVYFCAVRFDYWGQGTTLTVSS VL: DIVMTQAAPSVPVTPGESVSISCRSSKSLLHSNGNTYLYWFLQRPGQSPQLLIYRMSNLASGVPDRFSGSGSGTAFTLRISRVEAEDVGVYYCMQHLEYPLTFGAGTKLELK | 40700

# kon (binder: Anti-NOGO antibody 2A10/3 (mouse monoclonal) (antibody, V domains shown, Mouse hybridoma antibody; also called Mouse 2A10; 2A10-BR) VH: QVQLQQPGTELVKPGASVKLSCKASGYTFTSYWMHWVKQRPGQGLEWIGNINPSNGGTNYNEKFKSKATLTVDKSSSTAYMQLSSLTSEDSAVYYCELGQGYWGQGTTLTVSS VL: DIVITQDELSNPVTSGESVSISCRSSKSLLYKDGKTYLNWFLQRPGQSPQLLIYLMSTRASGVSDRFSGSGSGTDFTLEISRVKAEDVGVYYCQQLVEYPLTFGAGTKLELK ) is 2.9e+06

Reference for the values: patent US20070065430A1
